measuredTarget: Tyrosine-protein kinase JAK1 (Homo sapiens, UniProt P23458)
Sequence (P23458 whole entry): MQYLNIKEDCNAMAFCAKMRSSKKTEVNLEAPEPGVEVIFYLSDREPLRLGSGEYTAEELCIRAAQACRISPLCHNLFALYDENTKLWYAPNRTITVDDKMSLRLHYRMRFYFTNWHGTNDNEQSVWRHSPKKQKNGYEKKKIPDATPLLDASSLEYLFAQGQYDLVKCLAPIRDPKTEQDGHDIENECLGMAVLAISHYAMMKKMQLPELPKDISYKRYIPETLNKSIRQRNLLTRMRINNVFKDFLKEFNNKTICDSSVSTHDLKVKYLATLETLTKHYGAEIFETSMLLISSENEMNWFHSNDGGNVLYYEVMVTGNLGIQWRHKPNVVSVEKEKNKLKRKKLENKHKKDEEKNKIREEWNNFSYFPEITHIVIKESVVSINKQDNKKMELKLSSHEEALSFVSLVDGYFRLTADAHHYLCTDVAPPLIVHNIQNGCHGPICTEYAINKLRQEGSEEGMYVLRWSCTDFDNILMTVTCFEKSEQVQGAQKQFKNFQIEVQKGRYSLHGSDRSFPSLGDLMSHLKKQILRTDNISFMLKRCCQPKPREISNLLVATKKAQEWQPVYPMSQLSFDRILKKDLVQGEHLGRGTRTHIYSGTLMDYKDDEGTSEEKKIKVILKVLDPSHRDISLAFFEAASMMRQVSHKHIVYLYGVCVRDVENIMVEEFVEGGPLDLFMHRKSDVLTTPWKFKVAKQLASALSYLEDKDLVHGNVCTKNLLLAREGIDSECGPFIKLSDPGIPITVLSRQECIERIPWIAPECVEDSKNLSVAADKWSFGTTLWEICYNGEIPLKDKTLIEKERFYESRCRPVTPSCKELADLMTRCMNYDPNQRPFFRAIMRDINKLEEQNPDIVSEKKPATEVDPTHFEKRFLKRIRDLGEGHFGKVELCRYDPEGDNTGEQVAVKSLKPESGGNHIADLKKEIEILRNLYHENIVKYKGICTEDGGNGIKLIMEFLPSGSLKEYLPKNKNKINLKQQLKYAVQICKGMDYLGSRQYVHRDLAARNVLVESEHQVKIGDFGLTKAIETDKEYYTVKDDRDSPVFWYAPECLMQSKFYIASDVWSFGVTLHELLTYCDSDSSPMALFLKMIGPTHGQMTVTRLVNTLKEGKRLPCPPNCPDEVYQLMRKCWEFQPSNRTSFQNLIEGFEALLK
pIC50: −log10 of the molar value.
assayMetric: pIC50

Give pIC50 for COc1cc2ncnc(Nc3ccc(O)cc3)c2cc1OC tested on Tyrosine-protein kinase JAK1 (Homo sapiens, UniProt P23458). < 5.00
